# TESTED SYSTEM: TGF-β1 (UniProt P01137 279-390)
# Sequence (P01137 279-390 limits assumed): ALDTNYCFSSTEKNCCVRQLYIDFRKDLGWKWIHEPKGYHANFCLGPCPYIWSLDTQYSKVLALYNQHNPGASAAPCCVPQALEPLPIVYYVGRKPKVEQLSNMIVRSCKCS
# ASSAY METHOD TEXT: cell-based or functional assay
OBSERVABLE: IC50-inhibition of TGF-β1 induced reporter gene activity (HEK-Blue TGF-β cells, SEAP) (nM)

BINDER	ASSAY VALUE
Anti-PD-1 (nVL1-nVH3).IgG4-TGFbRII (other) heavy (part 1 of 2): QVQLVESGGGVVQPGRSLRLDCKASGITFSNSGMHWVRQAPGKGLEWVAVIWYDGSKRYYADSVKGRFTISRDNSKNTLFLQMNSLRAEDTAVYYCATNNDYWGQGTLVTVSS heavy (part 2 of 2): GGGGSGGGGSIPPHVQKSVNNDMIVTDNNGAVKFPQLCKFCDVRFSTCDNQKSCMSNCSITSICEKPQEVCVAVWRKNDENITLETVCHDPKLPYHDFILEDAASPKCIMKEKKKPGETFFMCSCSSDECNDNIIFSEEYNTSNPD VL: EIVMTQSPATLSLSPGERATLSCRASQSVSSYLAWYQQKPGQAPRLLIYDASNRATGIPARFSGSGSGTDFTLTISSLEPEDFAVYYCQQYNNWPRTFGQGTKVEIK	0.0107
